Target: C3a Receptor (Homo sapiens, UniProt Q16581)
Sequence (Q16581 1-482 F151C): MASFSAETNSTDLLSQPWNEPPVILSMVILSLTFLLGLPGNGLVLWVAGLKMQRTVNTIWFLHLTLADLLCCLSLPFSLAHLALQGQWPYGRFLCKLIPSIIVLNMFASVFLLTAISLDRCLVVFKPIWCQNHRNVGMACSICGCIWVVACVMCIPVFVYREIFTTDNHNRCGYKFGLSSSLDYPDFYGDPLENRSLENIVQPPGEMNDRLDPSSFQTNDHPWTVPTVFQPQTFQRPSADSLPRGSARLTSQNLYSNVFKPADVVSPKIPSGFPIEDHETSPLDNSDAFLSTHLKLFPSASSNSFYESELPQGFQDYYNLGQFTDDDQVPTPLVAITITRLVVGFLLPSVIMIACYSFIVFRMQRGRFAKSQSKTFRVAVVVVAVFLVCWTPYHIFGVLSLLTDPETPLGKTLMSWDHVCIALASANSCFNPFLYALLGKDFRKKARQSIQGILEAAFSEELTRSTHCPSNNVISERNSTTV
Assay: Whole cell 125I-C3a binding to C3a Receptor expressing RBL-2H3 cells (competition and saturation)
Set-up: cDNA encoding a complete orphan GPCR of 482 amino acids; expressed in transfected cells
Conditions: RBL-2H3 cells expressing C3a Receptor, 1×10^6 cells, 2.3 nM labelled C3a
measurement.label: IC50 (nM)

{"biopolymer.sequence": "WWGKKYRASKLGLAR [C3a analogue synthetic peptide, reference compound]", "target.of.assay": "C3a Receptor (Homo sapiens, UniProt Q16581)", "measurement.label": "IC50", "output.unit": "nM", "numeric.result": 155}
